B1: Caulobacter ParB omega fusion; a variant is named by its letters at X, in order, B8GW30 (parent)
chain: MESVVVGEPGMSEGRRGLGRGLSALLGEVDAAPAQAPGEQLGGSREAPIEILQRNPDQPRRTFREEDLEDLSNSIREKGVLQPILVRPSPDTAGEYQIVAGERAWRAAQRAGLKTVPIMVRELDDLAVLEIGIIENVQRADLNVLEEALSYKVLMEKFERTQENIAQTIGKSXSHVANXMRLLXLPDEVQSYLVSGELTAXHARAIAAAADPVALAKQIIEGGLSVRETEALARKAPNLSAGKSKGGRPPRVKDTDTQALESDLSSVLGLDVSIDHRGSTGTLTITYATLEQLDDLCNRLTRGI

Variants of: B1
procedure.summary: one-hybrid fitness for binding parS DNA (scaled: cognate 1, non-cognate 0); higher = stronger binding
test.settings: with parS DNA site
In all, about 81,000 sequences were measured (“one-hybrid fitness for binding parS DNA”: median about -0.17, highest 2% from about 0.51 on). The full list was thinned out, with the highest values kept by preference.
readout: one-hybrid fitness for binding parS DNA

FKLR	≤ 0.2
RVSD	≤ 0.2

Exercise: Which one-hybrid fitness for binding parS DNA value is on record for RRPF ?
Key: ≤ 0.2

Exercise: Subsequent entry: RRPQ
Key: ≤ 0.2

Exercise: Same read-out for RHSD ?
Key: ≤ 0.2

Exercise: Now this one: RPQS
Key: ≤ 0.2

Exercise: And for QVQF ?
Key: ≤ 0.2

Exercise: Ok, now RSED
Key: ≤ 0.2

Exercise: Next record, please: RIQS
Key: 0.99

Exercise: Item: QSSQ
Key: ≤ 0.2

Exercise: Another variant to check: PQQE
Key: ≤ 0.2

Exercise: Please do the same for RTEC as well.
Key: 0.874
